# Measured target: P2X purinoceptor 7 (Homo sapiens)
# Assay remarks: Inhibition of human P2X7 expressed in human HEK293 cells assessed as reduction in BzATP-stimulated TO-PRO-3 incorporation at 10 uM preincubated with compound and TO-PRO-3 for 15 mins prior to BzATP addition and measured after 1 hr by Fluo-3AM dye based flow cytometry relative to control
# Assay type: cell-based
The source made the active and inactive calls. The rule behind the calls is not given here.
Measure name: inhibition

Some compounds with known inhibition results, for comparison:
{"Compound": "CN1C(=O)CC[C@H]1C(=O)NCc1cc(C(F)(F)F)ccc1Cl", "Measure name": "inhibition", "Value": "0%"}
{"Compound": "CCCCCCN1C(=O)[C@@H]2C/C(=C\\N(C)C)C(=O)N2C1N(C)C (some centres undefined)", "Measure name": "inhibition", "Value": "0%"}
{"Compound": "O=C(Nc1ccc(Cl)cc1Cl)[C@@H]1CCC(=O)N1c1ccccc1", "Measure name": "inhibition", "Value": "0%"}
{"Compound": "O=C(NCc1ccc(Cl)cc1Cl)[C@@H]1CCC(=O)N1c1ccccc1", "Measure name": "inhibition", "Value": "50%"}
{"Compound": "O=C(NCc1ccc(Cl)cc1Cl)[C@@H]1CCC(=O)N1c1nccs1", "Measure name": "inhibition", "Value": "83%"}
{"Compound": "COc1ccc(N2C(=O)CC[C@H]2C(=O)NCc2ccc(Cl)cc2Cl)cc1", "Measure name": "inhibition", "Value": "0%"}
{"Compound": "O=C1CC[C@@H](C(=O)Nc2ccncc2)N1", "Measure name": "inhibition", "Value": "inactive"}
{"Compound": "O=C1CC[C@@H](C(=O)NC2CC3CCC2C3)N1 (some centres undefined)", "Measure name": "inhibition", "Value": "inactive"}
{"Compound": "COc1ccccc1CNC(=O)[C@@H]1CCC(=O)N1", "Measure name": "inhibition", "Value": "inactive"}
{"Compound": "O=C1CC[C@@H](C(=O)Nc2ccccc2)N1", "Measure name": "inhibition", "Value": "inactive"}

Value sought: inhibition, system P2X purinoceptor 7 (Homo sapiens), item C[C@H](NC(=O)[C@@H]1CCC(=O)N1)c1ccccc1 . Result: inactive

CN(C)/C=C1\C[C@H]2C(=O)N(CCc3ccccc3)C(N(C)C)N2C1=O (some centres undefined) on P2X purinoceptor 7 (Homo sapiens) gives inhibition = 0%

Record O=C(NCc1ccc(Cl)cc1Cl)[C@@H]1CCC(=O)N1c1ccsc1 ; system P2X purinoceptor 7 (Homo sapiens); inhibition = 78%

Record O=C(NCc1cccc(C(F)(F)F)c1Cl)[C@@H]1CCC(=O)N1c1cccs1 has P2X purinoceptor 7 (Homo sapiens) inhibition equal to 100%
